- Procedure Details: Analysis of Drug Levels and Liver Accumulation in Rats
- Type: in vivo, rat
- Cond: Sprague-Dawley, rat, iv; fasted rats, 10 mgs/kg i.v., one hour post injection, plasma; read-out: Plasma Conc.
Quantity Measured: concentration at 1 h (µM)

{"Compound": "CCCc1oc(N)nc1-c1ccc(P(=O)(O)O)o1", "Quantity Measured": "concentration at 1 h", "Quantitative Readout": 22}
{"Compound": "CSc1sc(N)nc1-c1ccc(P(=O)(O)O)o1", "Quantity Measured": "concentration at 1 h", "Quantitative Readout": 56}
{"Compound": "Nc1ccc(C2CC2)c(-c2ccc(P(=O)(O)O)o2)n1", "Quantity Measured": "concentration at 1 h", "Quantitative Readout": 66.3}
